Reported IC50 for target or system Poly [ADP-ribose] polymerase tankyrase-2 (Homo sapiens, UniProt Q9H2K2), by entry.
Numbers only, in nM.

• Cc1cc(F)cc2c(=O)[nH]c(C[C@@H](C)CC(=O)N3CCC(C(=O)c4cnn(C)c4)CC3)nc12 = 0.59

// next item, IC50 requested
INPUT: Provide value of IC50 for this record tested with Poly [ADP-ribose] polymerase tankyrase-2 (Homo sapiens, UniProt Q9H2K2): Cc1cc(F)cc2c(=O)[nH]c(C[C@H](C)CC(=O)N3CCC(C(=O)c4cnn(C)c4)CC3)nc12
Sequence (Q9H2K2 whole entry): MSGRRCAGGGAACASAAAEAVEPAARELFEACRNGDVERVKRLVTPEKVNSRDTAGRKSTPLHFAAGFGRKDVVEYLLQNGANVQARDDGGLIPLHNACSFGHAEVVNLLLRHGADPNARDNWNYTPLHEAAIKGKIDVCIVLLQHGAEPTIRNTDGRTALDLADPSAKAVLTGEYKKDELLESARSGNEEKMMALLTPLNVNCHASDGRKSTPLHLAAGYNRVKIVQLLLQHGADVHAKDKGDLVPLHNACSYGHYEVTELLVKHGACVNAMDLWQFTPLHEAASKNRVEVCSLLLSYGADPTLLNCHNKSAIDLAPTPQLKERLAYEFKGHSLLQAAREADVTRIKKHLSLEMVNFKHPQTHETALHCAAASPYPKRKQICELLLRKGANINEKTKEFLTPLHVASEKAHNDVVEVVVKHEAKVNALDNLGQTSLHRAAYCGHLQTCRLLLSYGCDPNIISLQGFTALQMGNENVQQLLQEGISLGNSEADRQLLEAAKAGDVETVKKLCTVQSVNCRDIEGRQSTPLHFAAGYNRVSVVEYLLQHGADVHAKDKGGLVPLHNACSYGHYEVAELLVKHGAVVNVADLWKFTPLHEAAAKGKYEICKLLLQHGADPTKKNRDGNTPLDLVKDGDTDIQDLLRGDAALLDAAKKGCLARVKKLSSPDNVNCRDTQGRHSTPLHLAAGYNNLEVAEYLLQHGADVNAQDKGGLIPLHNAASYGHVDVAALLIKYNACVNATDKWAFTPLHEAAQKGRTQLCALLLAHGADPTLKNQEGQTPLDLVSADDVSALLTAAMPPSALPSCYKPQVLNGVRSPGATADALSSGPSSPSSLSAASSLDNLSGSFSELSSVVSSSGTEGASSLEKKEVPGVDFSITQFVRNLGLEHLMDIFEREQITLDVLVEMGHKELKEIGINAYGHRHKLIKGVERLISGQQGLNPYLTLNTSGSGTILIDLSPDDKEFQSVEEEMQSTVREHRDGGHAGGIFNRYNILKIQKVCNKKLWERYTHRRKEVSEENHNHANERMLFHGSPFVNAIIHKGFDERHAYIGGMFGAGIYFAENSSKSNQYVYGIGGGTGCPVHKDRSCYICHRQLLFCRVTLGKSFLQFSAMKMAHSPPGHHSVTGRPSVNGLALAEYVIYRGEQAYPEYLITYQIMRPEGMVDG
OUTPUT: 0.2

====

Field: pIC50. Provide a value for each of the molecules that follow.
system_tested: UniProtKB O95271
Sequence (O95271 whole entry, the tested form may be a part): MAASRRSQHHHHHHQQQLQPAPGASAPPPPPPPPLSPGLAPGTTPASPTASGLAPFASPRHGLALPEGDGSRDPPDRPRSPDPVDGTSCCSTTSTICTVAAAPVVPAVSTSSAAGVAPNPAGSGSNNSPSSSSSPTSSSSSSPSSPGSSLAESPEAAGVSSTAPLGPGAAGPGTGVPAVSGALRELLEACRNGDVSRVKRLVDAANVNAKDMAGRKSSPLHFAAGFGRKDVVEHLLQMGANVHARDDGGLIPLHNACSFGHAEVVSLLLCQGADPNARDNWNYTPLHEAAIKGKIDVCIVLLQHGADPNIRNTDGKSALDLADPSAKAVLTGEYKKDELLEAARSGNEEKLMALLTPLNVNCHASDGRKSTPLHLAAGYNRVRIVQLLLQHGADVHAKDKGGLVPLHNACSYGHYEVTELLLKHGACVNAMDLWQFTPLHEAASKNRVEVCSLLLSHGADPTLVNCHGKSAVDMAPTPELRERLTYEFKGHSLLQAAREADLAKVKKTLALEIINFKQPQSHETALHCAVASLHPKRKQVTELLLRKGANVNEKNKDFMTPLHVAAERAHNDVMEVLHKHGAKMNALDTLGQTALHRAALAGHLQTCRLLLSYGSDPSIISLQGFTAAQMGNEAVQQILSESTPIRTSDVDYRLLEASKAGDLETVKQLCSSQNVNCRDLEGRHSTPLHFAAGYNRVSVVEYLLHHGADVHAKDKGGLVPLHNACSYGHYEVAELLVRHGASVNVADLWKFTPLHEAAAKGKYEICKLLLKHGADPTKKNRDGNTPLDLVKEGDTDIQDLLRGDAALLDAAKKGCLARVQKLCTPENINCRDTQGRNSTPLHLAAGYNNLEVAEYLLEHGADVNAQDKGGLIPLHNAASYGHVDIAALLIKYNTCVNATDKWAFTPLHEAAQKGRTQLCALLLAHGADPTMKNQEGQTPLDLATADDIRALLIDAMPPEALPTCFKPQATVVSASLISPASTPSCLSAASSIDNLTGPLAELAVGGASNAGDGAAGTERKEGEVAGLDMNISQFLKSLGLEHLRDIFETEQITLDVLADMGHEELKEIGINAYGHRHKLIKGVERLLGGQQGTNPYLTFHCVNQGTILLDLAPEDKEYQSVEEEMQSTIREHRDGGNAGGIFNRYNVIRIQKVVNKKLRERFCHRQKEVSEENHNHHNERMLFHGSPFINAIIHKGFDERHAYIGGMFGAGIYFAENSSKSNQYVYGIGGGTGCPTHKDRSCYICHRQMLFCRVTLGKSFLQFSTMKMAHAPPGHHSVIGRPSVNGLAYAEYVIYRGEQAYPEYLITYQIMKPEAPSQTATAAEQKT
experiment: Biochemical Activity Assay: TNKS 1 and 2: The activity ELISA is performed in 384 well Glutathione coated microtiter plates (Express capture Glutathione coated plate, Biocat, Heidelberg, Germany). The plates are pre-equilibrated with PBS. Then the plates are incubated with 50 μl 20 ng/well GST-tagged Tnks-1 (1023-1327 aa, prepared in-house), respectively GST-tagged Tnks-2 (873-1166 aa, prepared in-house) in assay buffer (50 mM HEPES, 4 mM Mg-chloride, 0.05% Pluronic F-68, 2 mM DTT, pH 7.7) overnight at 4° C. The plates are washed 3 times with PBS-Tween-20. The wells are blocked by incubation at room temperature for 20 minutes with 50 μl blocking buffer (PBS, 0.05% Tween-20, 0.5% BSA). Afterwards the plates are washed 3 times with PBS-Tween-20. The enzymatic reaction is performed in 50 μl reaction solution (50 mM HEPES, 4 mM Mg-chloride, 0.05% Pluronic F-68, 1.4 mM DTT, 0.5% DMSO, pH 7.7) with 10 μM bio-NAD (Biolog, Life science Inst., Bremen, Germany) as co-substrate in the absence or presence of the test compound (10 dilution concentrations) for 1 hour at 30° C. The reaction is stopped by 3 times washing with PBS-Tween-20. For the detection 50 μl of 20 ng/μl Streptavidin, HRP conjugate (MoBiTec, Göttingen, Germany) in PBS/0.05% Tween-20/0.01% BSA are added and the plates are incubated for 30 minutes at room temperature. After three times washing with PBS-Tween-20 50 μl of SuperSignal ELISA Femto Maximum sensitivity substrate solution (ThermoFisherScientific (Pierce), Bonn, Germany) are added. Following a 1 minute incubation at room temperature luminescence signals are measured with an Envision multimode reader (Perkin Elmer LAS Germany GmbH) at 700 nm.
Numbers only, as −log10 of the molar value.

• Cc1cc(F)cc2c(=O)[nH]c(C[C@@H](C)CC(=O)N3CCC(C(=O)c4cnn(C)c4)CC3)nc12 = 9.18

// next item, pIC50 requested
INPUT: Request the reported pIC50 associated with Cc1cc(F)cc2c(=O)[nH]c(C[C@H](C)CC(=O)N3CCC(C(=O)c4cnn(C)c4)CC3)nc12
OUTPUT: 9.51
